meta.source: ChEMBL document CHEMBL1687916

target-or-system: Adenosine deaminase (Bos taurus) (UniProt P56658)
Sequence (whole entry): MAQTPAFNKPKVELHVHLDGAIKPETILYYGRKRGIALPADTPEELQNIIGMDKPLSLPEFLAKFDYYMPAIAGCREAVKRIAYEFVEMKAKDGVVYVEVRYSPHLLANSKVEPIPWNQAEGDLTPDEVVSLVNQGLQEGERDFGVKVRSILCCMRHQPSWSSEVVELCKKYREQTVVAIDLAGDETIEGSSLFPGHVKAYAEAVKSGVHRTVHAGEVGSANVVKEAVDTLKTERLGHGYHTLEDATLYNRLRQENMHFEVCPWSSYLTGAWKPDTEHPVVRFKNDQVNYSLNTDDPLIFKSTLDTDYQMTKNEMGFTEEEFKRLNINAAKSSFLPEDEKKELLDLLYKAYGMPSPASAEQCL
experimental-details: Inhibition of bovine ADA at 100 uM by spectrophotometric analysis
property-name: inhibition (%)

a. C#Cc1ccc(SCc2ccc(C3(CC)Oc4ccccc4-n4cccc4C3=O)cc2)cc1 (racemic)
b. CCC1(c2ccc(CSc3cccc(C(F)(F)F)c3)cc2)Oc2ccccc2-n2cccc2C1=O (racemic)
Q: # query: argmin of inhibition over a and b Your answer should be the label of the entry you select.
Result: b
(b: 2.7%, a: 16%)

I. CCC1(c2ccc(CSc3ccc(F)cc3)cc2)Oc2ccccc2-n2cccc2C1=O (racemic)
II. CCC1(c2ccc(CSc3ccccc3Cl)cc2)Oc2ccccc2-n2cccc2C1=O (racemic)
Q: # query: argmin of inhibition over I and II Your answer should be the label of the entry you select.
Result: II
